- targetUnderTest: full length recombinant Pim-1 protein (Homo sapiens)
- Construct: by full length recombinant Pim-1, Pim-2, or Pim-3 protein; hexahistidine tag followed by a thrombin cleavage site (N); made in house; host or cells: Sf9 (baculovirus) or E. coli (pET28)
- Sequence (P11309 whole entry): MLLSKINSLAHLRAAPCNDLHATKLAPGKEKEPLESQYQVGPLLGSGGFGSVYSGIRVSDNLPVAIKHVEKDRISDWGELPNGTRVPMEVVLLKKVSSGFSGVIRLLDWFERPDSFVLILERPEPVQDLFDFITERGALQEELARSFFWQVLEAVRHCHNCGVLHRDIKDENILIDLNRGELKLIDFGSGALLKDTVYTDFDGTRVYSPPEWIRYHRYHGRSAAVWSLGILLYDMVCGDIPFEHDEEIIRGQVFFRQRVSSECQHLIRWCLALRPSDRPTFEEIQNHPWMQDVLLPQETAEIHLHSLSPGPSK
- protocolDescription: Pim-1 enzyme assay (HTRF, phosphorylation of biotinylated-BAD (S112) peptide)
- Format: biochemical
- studyConditions: enzyme assay, Pim-1; read-out: Pim_1_IC50
recordedMetric: pIC50
Keep in mind that pIC50 stands for -log10 of concentration in molar terms.

# count of solved cases: 3
>>> print(df.to_string())
                                   compound  resultnumber
0  c1cn2cc(-c3ccc4[nH]nc(-c5cncc(O[C@@H]6CCCNC6)n5)c4c3)ncc2n1          8.30
1  NC1CCN(c2cncc(-c3n[nH]c4ccc(-c5cncc(F)c5)cc34)n2)CC1          8.30
2  c1cc2[nH]nc(-c3cncc(O[C@@H]4CCCNC4)n3)c2cc1C1CCCOC1 (some centres unmarked)          7.31

Item: NC1CCN(c2cncc(-c3c[nH]c4ccc(-c5ccccc5F)nc34)c2)CC1 Test system: full length recombinant Pim-1 protein (Homo sapiens) Read-out: pIC50 Value: ?
7.57

full length recombinant Pim-1 protein (Homo sapiens) / pIC50 / c1cc2c(cc1-c1ccc3[nH]nc(-c4cncc(O[C@@H]5CCCNC5)n4)c3c1)OCCO2 : value?
8.70

Request - read-out pIC50 | tested on full length recombinant Pim-1 protein (Homo sapiens) | compound O=c1[nH]cncc1-c1ccc2[nH]nc(-c3cncc(O[C@@H]4CCCNC4)n3)c2c1
7.68

Recorded pIC50 for NC1CCN(c2cncc(-c3c[nH]c4ccc(NC(=O)c5ccccc5)cc34)n2)CC1 with full length recombinant Pim-1 protein (Homo sapiens), please?
6.92

# query: pIC50 | item CC(C)Oc1cccc(-c2ccc3[nH]nc(-c4cncc(O[C@@H]5CCCNC5)n4)c3c2)c1 | system: full length recombinant Pim-1 protein (Homo sapiens)
8.15

====

- targetUnderTest: full length recombinant Pim-3 protein (Homo sapiens, UniProt Q86V86)
- Construct: by full length recombinant Pim-1, Pim-2, or Pim-3 protein
- protocolDescription: Pim-3 enzyme assay (HTRF, phosphorylation of biotinylated-BAD (S112) peptide)
- studyConditions: read-out: Pim3 IC50
- Excerpt: Pim-3 was purchased from Millipore (UK). The phosphorylation of biotinylated-BAD (S112) peptide by full length recombinant Pim-1, Pim-2, or Pim-3 protein was detected with streptavidin:Allophycocyanin (APC) conjugate and a europium (Eu) labeled antibody directed against phosphorylated-BAD (S112). […] The fluorescence is directly proportional to the amount of phosphorylated BAD peptide present in the reaction. […]
recordedMetric: pIC50
Conceptually, pIC50 converts a concentration in mol/L into minus its log10.

                                   compound  resultnumber
0  NC1CCN(c2cncc(-c3n[nH]c4ccc(-c5ccc6cc[nH]c6n5)cc34)n2)CC1          8.52
1  NC1CCN(c2cncc(-c3n[nH]c4ccc(-c5cc(C(=O)Nc6ccccc6)ccc5F)cc34)n2)CC1          8.10
2  CC(C)c1ccnc(-c2ccc3[nH]nc(-c4cncc(O[C@@H]5CCCNC5)n4)c3c2)n1          8.22

Fill in: pIC50 of C[C@H]1CCNC[C@@H]1Oc1cncc(-c2n[nH]c3ccc(-c4c(F)cccc4F)cc23)n1 [Example 198] is ___
8.30

====

- targetUnderTest: full length recombinant Pim-3 protein (Homo sapiens, UniProt Q86V86)
- Construct: by full length recombinant Pim-1, Pim-2, or Pim-3 protein
- protocolDescription: Pim-3 enzyme assay (HTRF, phosphorylation of biotinylated-BAD (S112) peptide)
- studyConditions: read-out: Pim3 IC50
The reader will find reported log10 of IC50 values listed item by item below.
Hey, these are logged values: log10 of IC50, nM being the unit before logging.

Please review the following examples before continuing.
In [3]: df
Out[3]:
                               smilesrecord                           targetundertest  recordedmetric  resultnumber
0  NC1CCN(c2cncc(-c3n[nH]c4ccc(-c5cn6ccnc6cn5)cc34)n2)CC1  full length recombinant Pim-3 protein (Homo sapiens, UniProt Q86V86)   log10 of IC50          0.70
1  O=C(NC1CC1)c1ccnc(-c2ccc3[nH]nc(-c4cncc(O[C@@H]5CCCNC5)n4)c3c2)c1  full length recombinant Pim-3 protein (Homo sapiens, UniProt Q86V86)   log10 of IC50          1.08
2  Nc1cccnc1-c1ccc2[nH]nc(-c3cncc(N4CCC(N)CC4)n3)c2c1  full length recombinant Pim-3 protein (Homo sapiens, UniProt Q86V86)   log10 of IC50          2.07
3  NC1CCN(c2cncc(-c3n[nH]c4ccc(-c5ccc6nccnc6c5)cc34)n2)CC1  full length recombinant Pim-3 protein (Homo sapiens, UniProt Q86V86)   log10 of IC50          0.00

Any idea what log10 of IC50 was measured for CN1C(=O)Cc2cc(-c3ccc4[nH]nc(-c5cncc(N6CCC(N)CC6)n5)c4c3)ccc21 ?
0.95

Using the record for Cc1ccc(-c2c[nH]c3ccc(-c4cncc(OC(C)C)n4)cc23)nc1 , report its log10 of IC50.
2.84

// log10 of IC50 lookup, key: CC(C)Oc1cncc(-c2ccc3[nH]cc(-c4cncc(N[C@@H]5CCCNC5)n4)c3c2)n1
1.18

Reported log10 of IC50, compound NC1CCN(c2cncc(-c3n[nH]c4ccc(Br)cc34)n2)CC1 : ____
1.04

What value of measured log10 of IC50 is listed for N#Cc1ccccc1-c1ccc2[nH]nc(-c3cncc(N4CCC(N)CC4)n3)c2c1 ?
0.60

====

- targetUnderTest: full length recombinant Pim-2 protein (Homo sapiens, UniProt Q9P1W9)
- Construct: by full length recombinant Pim-1, Pim-2, or Pim-3 protein; hexahistidine tag followed by a thrombin cleavage site (N); made in house; host or cells: Sf9 (baculovirus) or E. coli (pET28)
- Sequence (Q9P1W9 whole entry): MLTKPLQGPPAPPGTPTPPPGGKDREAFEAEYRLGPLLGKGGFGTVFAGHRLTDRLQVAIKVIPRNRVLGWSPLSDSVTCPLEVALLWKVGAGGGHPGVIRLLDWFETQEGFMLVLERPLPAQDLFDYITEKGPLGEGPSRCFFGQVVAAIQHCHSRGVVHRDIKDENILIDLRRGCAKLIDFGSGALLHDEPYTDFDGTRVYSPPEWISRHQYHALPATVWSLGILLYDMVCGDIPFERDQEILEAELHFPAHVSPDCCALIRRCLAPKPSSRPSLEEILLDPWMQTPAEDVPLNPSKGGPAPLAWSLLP
- protocolDescription: Pim-2 enzyme assay (HTRF, phosphorylation of biotinylated-BAD (S112) peptide)
- Type: biochemical
- studyConditions: enzyme assay, Pim-2; read-out: Pim2_IC50
recordedMetric: IC50 (nM)
Provide only the numeric value, understood in nM.

>>> df
                               smilesrecord  resultnumber
0  FC(F)(F)c1cccc(-c2ccc3[nH]nc(-c4cncc(O[C@@H]5CCCNC5)n4)c3c2)n1            87

What measured IC50 goes with Cn1ccc2cc(-c3ccc4[nH]nc(-c5cncc(N6CCC(N)CC6)n5)c4c3)ccc2c1=O ?
72

Which IC50 reading was recorded for the compound CN1CCOc2cc(-c3ccc4[nH]nc(-c5cncc(O[C@@H]6CCCNC6)n5)c4c3)ccc21 ?
10

Value lookup for IC50; key = NC1CCN(c2cncc(-c3n[nH]c4ccc(-c5ccccc5F)cc34)n2)CC1
10

Return reported IC50; argument: NC1CCN(c2cncc(-c3c[nH]c4ccc(-c5ccccc5F)nc34)c2)CC1
380

Reported IC50 for CC(C)Oc1nccc(-c2ccc3[nH]nc(-c4cncc(O[C@@H]5CCCNC5)n4)c3c2)n1 : what is it?
165

Please look up its IC50: CCCCNC(=O)c1ccc(F)c(-c2ccc3[nH]nc(-c4cncc(N5CCC(N)CC5)n4)c3c2)c1
9

Given the entry Nc1cc(-c2ccc3[nH]nc(-c4cncc(N5CCC(N)CC5)n4)c3c2)ccc1N1CCOCC1 , report its measured IC50.
43

====

- targetUnderTest: full length recombinant Pim-2 protein (Homo sapiens)
- Construct: by full length recombinant Pim-1, Pim-2, or Pim-3 protein; hexahistidine tag followed by a thrombin cleavage site (N); made in house; host or cells: Sf9 (baculovirus) or E. coli (pET28)
- protocolDescription: Pim-2 enzyme assay (HTRF, phosphorylation of biotinylated-BAD (S112) peptide)
- Assay type: biochemical
- studyConditions: read-out: Pim2_IC50
pIC50: −log10 of the molar value.
Rule: fulfilled for pIC50 not less than 7, not fulfilled for anything less.

See these solved cases before continuing.
In [3]: df
Out[3]:
                                   compound      classname
0  CC(C)C1CCNCC1Oc1cncc(-c2n[nH]c3ccc(-c4c(F)cccc4F)cc23)n1 (single isomer, unassigned) [Example 395]      fulfilled
1  O=C(O)c1ccc2[nH]cc(-c3cncc(N[C@@H]4CCCNC4)n3)c2c1  not fulfilled
2  CC(C)C1CCNCC1Oc1cncc(-c2n[nH]c3ccc(-c4c(F)cccc4F)cc23)n1 (single isomer, unassigned) [Example 394]  not fulfilled
3  CC1(c2ccc3[nH]nc(-c4cncc(O[C@H]5CNCCC56CC6)n4)c3c2)CC1      fulfilled
4  CC(C)Oc1cncc(-c2ccc3[nH]cc(-c4nn(C(C)C)c(=O)o4)c3c2)n1  not fulfilled

Read the next record carefully.
Assess whether reported pIC50 for Fc1cccc(F)c1-c1ccc2[nH]nc(-c3cncc(Oc4cccnc4)n3)c2c1 sits at 7 or higher.
not fulfilled
